Test: Plasma pharmacokinetics of bimiralisib, non-compartmental analysis (LC-MS)
Assay type: in vivo, human
Conditions: human, plasma, oral, 120 mg, Continuous Dosing, 120 mg, Day 15, 1 patient; read-out: Cmax Mean (%CV)
result.type: Cmax (µg/mL)
Use µg/mL as the unit, but write only the number.

Name the reported Cmax value associated with the compound Nc1cc(C(F)(F)F)c(-c2nc(N3CCOCC3)nc(N3CCOCC3)n2)cn1
0.982

###

Assay: Plasma pharmacokinetics of bimiralisib, non-compartmental analysis (LC-MS)
Format: in vivo, human
Settings: human, plasma, oral, 100 mg, Intermittent Dose Schedule B, 100 mg, Day 8, 6 patients; read-out: AUC0–8 Geometric Mean (%CV)
result.type: AUC(0-t)
Quick note: number first, unit second.

Name the reported AUC(0-t) value associated with the compound Nc1cc(C(F)(F)F)c(-c2nc(N3CCOCC3)nc(N3CCOCC3)n2)cn1 [bimiralisib]
2880 ng·h/mL

Attribution: paper PMC10969742
